- TARGET DESC: Melanin-concentrating hormone receptor 1 (Homo sapiens, UniProt Q99705)
- Sequence (Q99705 whole entry): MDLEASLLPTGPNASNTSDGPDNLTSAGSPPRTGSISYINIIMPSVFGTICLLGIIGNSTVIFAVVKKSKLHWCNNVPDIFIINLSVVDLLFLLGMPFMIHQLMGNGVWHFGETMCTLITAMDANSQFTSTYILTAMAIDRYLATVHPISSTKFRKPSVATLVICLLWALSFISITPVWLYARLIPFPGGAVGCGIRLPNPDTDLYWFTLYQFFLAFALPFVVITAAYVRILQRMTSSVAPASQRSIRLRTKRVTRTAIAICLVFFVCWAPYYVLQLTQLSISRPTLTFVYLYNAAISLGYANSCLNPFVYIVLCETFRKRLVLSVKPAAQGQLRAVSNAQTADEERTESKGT
- PROTOCOL NOTES: Inhibitory activity against human CA-MCH-R1 (Melanin-concentrating hormone receptor 1) by using [125I](Phe13,Tyr19)MCH as radioligand expressed in HEK293 cells
- Format: cell-based
pIC50: −log10 of the molar value.
MEASUREMENT TYPE: pIC50

Reference set, count: 5
> print(dat)
                                   compound  value.reported
1  CN(C)c1nc(N[C@H]2CC[C@@H](NC(=O)c3cccc(F)c3)CC2)nc2ccccc12            8.02
2  COc1cc(OC)cc(C(=O)N[C@H]2CC[C@@H](Nc3nc(N(C)C)c4ccccc4n3)CC2)c1            8.70
3  CN(C)c1nc(NC[C@H]2CC[C@H](CNS(=O)(=O)c3ccc(Br)cc3OC(F)(F)F)CC2)nc2ccccc12            6.80
4  CN(C)c1nc(N[C@H]2CC[C@@H](NC(=O)c3cccc(Cl)c3)CC2)nc2ccccc12            8.35
5  CN(C)c1nc(N[C@H]2CC[C@@H](NC(=O)c3cccc([N+](=O)[O-])c3)CC2)nc2ccccc12            8.17

P: CN(C)c1nc(NC2CCN(C(=O)c3ccc(Br)cc3OC(F)(F)F)CC2)nc2ccccc12
Q: Cc1cccc(C(=O)N[C@H]2CC[C@@H](Nc3nc(N(C)C)c4ccccc4n3)CC2)c1
Exam item: Kindly identify which of P and Q has the larger recorded pIC50 value. Answer = label.
Marked response: Q
(Q: 8.34, P: 5.92)

a: CN(C)c1nc(NC2CCC(NCc3ccc(Br)cc3OC(F)(F)F)CC2)nc2ccccc12 (configuration not stated)
b: CN(C)c1nc(N[C@H]2CC[C@@H](NC(=O)c3ccc(Cl)c(Cl)c3)CC2)nc2ccccc12
c: CN(C)c1nc(N[C@H]2CC[C@@H](NC(=O)c3ccccc3F)CC2)nc2ccccc12
Exam item: Which order do these items take when sorted by rising pIC50? List them. API: response body holds the labels in the requested order.
Marked response: c, a, b

1: CN(C)c1nc(NC2CCN(Cc3ccc(Br)cc3OC(F)(F)F)CC2)nc2ccccc12
2: CN(C)c1nc(N[C@H]2CC[C@@H](NS(=O)(=O)c3ccc(Br)cc3OC(F)(F)F)CC2)nc2ccccc12
Exam item: Could you check which of 1 and 2 has a smaller value for pIC50? # answer = label of selected item
Marked response: 1
(1: 6.49, 2: 7.08)

Recorded values, source ChEMBL document CHEMBL1142793.
